B1: LINE1-mini (parent)
chain: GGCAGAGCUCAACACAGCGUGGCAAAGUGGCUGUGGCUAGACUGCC

- Variants of: B1
- ASSAY NAME: self-cleavage, relative activity (ratio to wild type); higher = more cleavage; in vitro, sequencing; the parent is a self-cleaving ribozyme
Binary classification by self-cleavage, with 0.2 as an inclusive lower bound for Condition met; all other cases are Condition not met.

Prompt: Say whether C10G U28G shows self-cleavage of 0.2 or more.
Response: Condition not met

Prompt: Say whether G29C G36C shows self-cleavage of 0.2 or more.
Response: Condition not met

Prompt: Say whether C23G C46G shows self-cleavage of 0.2 or more.
Response: Condition met

Prompt: Say whether G22A C37G shows self-cleavage of 0.2 or more.
Response: Condition not met

Prompt: Say whether C10U U34A shows self-cleavage of 0.2 or more.
Response: Condition not met

Prompt: Say whether C8A G19C shows self-cleavage of 0.2 or more.
Response: Condition not met

Prompt: Say whether A26G C46U shows self-cleavage of 0.2 or more.
Response: Condition met

Prompt: Say whether G2U G35U shows self-cleavage of 0.2 or more.
Response: Condition not met

Prompt: Say whether G1U C23A shows self-cleavage of 0.2 or more.
Response: Condition met

Prompt: Say whether U20G U32C shows self-cleavage of 0.2 or more.
Response: Condition not met

Prompt: Say whether A16U G36C shows self-cleavage of 0.2 or more.
Response: Condition not met

Prompt: Say whether A24U A41C shows self-cleavage of 0.2 or more.
Response: Condition not met

Prompt: Say whether G2U U20A shows self-cleavage of 0.2 or more.
Response: Condition not met

Prompt: Say whether U28G A41G shows self-cleavage of 0.2 or more.
Response: Condition met

Prompt: Say whether A4C A16C shows self-cleavage of 0.2 or more.
Response: Condition not met

Prompt: Say whether G1C G27U shows self-cleavage of 0.2 or more.
Response: Condition not met

Prompt: Say whether U20G U28C shows self-cleavage of 0.2 or more.
Response: Condition met

Prompt: Say whether A6C C15G shows self-cleavage of 0.2 or more.
Response: Condition not met

Prompt: Say whether C15A G22A shows self-cleavage of 0.2 or more.
Response: Condition met

Prompt: Say whether A4G C15G shows self-cleavage of 0.2 or more.
Response: Condition not met

Prompt: Say whether G19A A41U shows self-cleavage of 0.2 or more.
Response: Condition met

Prompt: Say whether A4G G22U shows self-cleavage of 0.2 or more.
Response: Condition met

Prompt: Say whether G1C A24C shows self-cleavage of 0.2 or more.
Response: Condition not met

Prompt: Say whether G17C U34A shows self-cleavage of 0.2 or more.
Response: Condition not met

Prompt: Say whether G21U A26C shows self-cleavage of 0.2 or more.
Response: Condition met

Prompt: Say whether C10U A25C shows self-cleavage of 0.2 or more.
Response: Condition met

Prompt: Say whether G1C G2A shows self-cleavage of 0.2 or more.
Response: Condition not met

Prompt: Say whether A24G G30U shows self-cleavage of 0.2 or more.
Response: Condition met

Prompt: Say whether G17A U28G shows self-cleavage of 0.2 or more.
Response: Condition not met

Prompt: Say whether C10A A41C shows self-cleavage of 0.2 or more.
Response: Condition not met

Prompt: Say whether G2C G21A shows self-cleavage of 0.2 or more.
Response: Condition met

Prompt: Say whether G1C G2C shows self-cleavage of 0.2 or more.
Response: Condition not met

Prompt: Say whether A25U U38A shows self-cleavage of 0.2 or more.
Response: Condition met

Prompt: Say whether U9G U28C shows self-cleavage of 0.2 or more.
Response: Condition not met

Prompt: Say whether C8U U32A shows self-cleavage of 0.2 or more.
Response: Condition not met

Prompt: Say whether C15U A39G shows self-cleavage of 0.2 or more.
Response: Condition not met

Prompt: Say whether C13G C31A shows self-cleavage of 0.2 or more.
Response: Condition not met

Prompt: Say whether C13U G44A shows self-cleavage of 0.2 or more.
Response: Condition not met

Prompt: Say whether A12C A26C shows self-cleavage of 0.2 or more.
Response: Condition not met

Prompt: Say whether G5U C42G shows self-cleavage of 0.2 or more.
Response: Condition not met

Prompt: Say whether A14U A41U shows self-cleavage of 0.2 or more.
Response: Condition met

Prompt: Say whether A14G G35U shows self-cleavage of 0.2 or more.
Response: Condition not met

Prompt: Say whether G1A U28C shows self-cleavage of 0.2 or more.
Response: Condition met

Prompt: Say whether A11U G21C shows self-cleavage of 0.2 or more.
Response: Condition not met

Prompt: Say whether U9C C37U shows self-cleavage of 0.2 or more.
Response: Condition not met

Prompt: Say whether U9A A11C shows self-cleavage of 0.2 or more.
Response: Condition not met

Prompt: Say whether C3A G33C shows self-cleavage of 0.2 or more.
Response: Condition not met

Prompt: Say whether G1U C45A shows self-cleavage of 0.2 or more.
Response: Condition met

Prompt: Say whether U28G U38C shows self-cleavage of 0.2 or more.
Response: Condition met

Prompt: Say whether C3G G33A shows self-cleavage of 0.2 or more.
Response: Condition met

Prompt: Say whether G27C G30U shows self-cleavage of 0.2 or more.
Response: Condition met

Prompt: Say whether A12U C13A shows self-cleavage of 0.2 or more.
Response: Condition met

Prompt: Say whether G22U A39G shows self-cleavage of 0.2 or more.
Response: Condition not met

Prompt: Say whether G27U G36U shows self-cleavage of 0.2 or more.
Response: Condition not met

Prompt: Say whether G5U C23U shows self-cleavage of 0.2 or more.
Response: Condition not met

Prompt: Say whether A26U U28A shows self-cleavage of 0.2 or more.
Response: Condition met

Prompt: Say whether C3U C42G shows self-cleavage of 0.2 or more.
Response: Condition not met

Prompt: Say whether G33A G40C shows self-cleavage of 0.2 or more.
Response: Condition not met

Prompt: Say whether G2C G17U shows self-cleavage of 0.2 or more.
Response: Condition not met

Prompt: Say whether U20G C42A shows self-cleavage of 0.2 or more.
Response: Condition not met

Prompt: Say whether A16G G36C shows self-cleavage of 0.2 or more.
Response: Condition not met

Prompt: Say whether U20A G29A shows self-cleavage of 0.2 or more.
Response: Condition met

Prompt: Say whether C18G U43A shows self-cleavage of 0.2 or more.
Response: Condition not met

Prompt: Say whether C8A G35C shows self-cleavage of 0.2 or more.
Response: Condition not met

Prompt: Say whether C23U A41U shows self-cleavage of 0.2 or more.
Response: Condition met

Prompt: Say whether A24G A39G shows self-cleavage of 0.2 or more.
Response: Condition not met

Prompt: Say whether G21U C45G shows self-cleavage of 0.2 or more.
Response: Condition not met

Prompt: Say whether G5A C46G shows self-cleavage of 0.2 or more.
Response: Condition not met

Prompt: Say whether G29A G40U shows self-cleavage of 0.2 or more.
Response: Condition not met

Prompt: Say whether C15A G22C shows self-cleavage of 0.2 or more.
Response: Condition not met

Prompt: Say whether U9A C37A shows self-cleavage of 0.2 or more.
Response: Condition met

Prompt: Say whether G22A G44U shows self-cleavage of 0.2 or more.
Response: Condition met

Prompt: Say whether C31G U32A shows self-cleavage of 0.2 or more.
Response: Condition not met

Prompt: Say whether C15U G27C shows self-cleavage of 0.2 or more.
Response: Condition met

Prompt: Say whether A4G A41G shows self-cleavage of 0.2 or more.
Response: Condition not met

Prompt: Say whether A14G G21C shows self-cleavage of 0.2 or more.
Response: Condition met

Prompt: Say whether G1A G22C shows self-cleavage of 0.2 or more.
Response: Condition met

Prompt: Say whether C15G A24G shows self-cleavage of 0.2 or more.
Response: Condition not met

Prompt: Say whether G2U A26G shows self-cleavage of 0.2 or more.
Response: Condition not met

Prompt: Say whether U28A C37U shows self-cleavage of 0.2 or more.
Response: Condition not met

Prompt: Say whether G7C U32G shows self-cleavage of 0.2 or more.
Response: Condition not met

Prompt: Say whether U9C G22U shows self-cleavage of 0.2 or more.
Response: Condition not met

Prompt: Say whether G1C G33A shows self-cleavage of 0.2 or more.
Response: Condition not met

Prompt: Say whether C18G U28G shows self-cleavage of 0.2 or more.
Response: Condition met

Prompt: Say whether G1C G40A shows self-cleavage of 0.2 or more.
Response: Condition not met

Prompt: Say whether G27A G30A shows self-cleavage of 0.2 or more.
Response: Condition met

Prompt: Say whether G17U A41G shows self-cleavage of 0.2 or more.
Response: Condition not met

Prompt: Say whether G29U U32G shows self-cleavage of 0.2 or more.
Response: Condition met
